Values from the supplement of paper PMC11208160

- ASSAY REMARKS: recombinant UMI read abundance after kanamycin selection (control-corrected) (log10(CPM+1)); higher = more efficient recombination; extreme values may be limits of the assay; sequences stand for … in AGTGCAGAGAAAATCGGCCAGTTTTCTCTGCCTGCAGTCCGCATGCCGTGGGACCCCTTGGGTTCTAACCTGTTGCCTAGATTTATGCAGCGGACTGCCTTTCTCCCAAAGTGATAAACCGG…AGGTTGGTTTCACT; site = the 11-nt donor
List of recombinant UMI read abundance (log10) values.

For orientation, consider the following solved cases.
CTGGAGGCATGGACCGGTTTTCCCGGTAATCCGTATTTGTG (site GTGGAGGCTCA) :: 0.0315
TACCCTTCATGGACCGGTTTTCCCGGTAATCCGTATTTGGT (site TAGCCTTCTAC) :: 0.0115
GGTGTGGCATGGACCGGTTTTCCCGGTAATCCGTATTTGTT (site GGTGTGGCTAA) :: 0.894
CGGAGTACATGGACCGGTTTTCCCGGTAATCCGTATTTGTT (site CGGAATCCTAA) :: 0

// GAACTCACATGGACCGGTTTTCCCGGTAATCCGTATTTGAT (site GAGCTCACTAT) : recombinant UMI read abundance (log10) value = 0

// recombinant UMI read abundance (log10) value for CTAACATCATGGACCGGTTTTCCCGGTAATCCGTATTTGCT (site CTAACATCTAG) : 2.12

Looking up CGAGGAACATGGACCGGTTTTCCCGGTAATCCGTATTTGTT (site CGAGGAACTAA) , I see its recombinant UMI read abundance (log10) listed as 2.78

The sequence listed as TGCAAACCATGGACCGGTTTTCCCGGTAATCCGTATTTGGG (site TGCAAACCTCC) shows recombinant UMI read abundance (log10) equal to 0.00989

For this sequence ( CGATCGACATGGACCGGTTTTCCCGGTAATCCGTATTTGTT (site CGATCCACTAA) ), measured recombinant UMI read abundance (log10) is 0.0134

// recombinant UMI read abundance (log10) value for CCAAAAGCATGGACCGGTTTTCCCGGTAATCCGTATTTGAT (site CCGAAAGCTAT) : 0

Memo: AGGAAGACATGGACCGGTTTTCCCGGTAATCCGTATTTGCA (site AGGAATACTAG) , reported recombinant UMI read abundance (log10): 0

Form: sequence = CGTGGAGCATGGACCGGTTTTCCCGGTAATCCGTATTTGTT (site CGTGGATCTAA) ; recombinant UMI read abundance (log10) = 1.23

Entry AGTAAATCATGGACCGGTTTTCCCGGTAATCCGTATTTGGG (site GCCGTTCCTGA) — recorded recombinant UMI read abundance (log10) = 0

recombinant UMI read abundance (log10) for GTAAGAACATGGACCGGTTTTCCCGGTAATCCGTATTTGGC (site GTAAGAACTGC) is 2.33

Consider AAGCCTGCATGGACCGGTTTTCCCGGTAATCCGTATTTGTA (site AAGCCTGCTTA) . Its measured recombinant UMI read abundance (log10) is 0.811

* * *

- ASSAY REMARKS: recombinant barcode read abundance after kanamycin selection (control-corrected) (log10(CPM+1)); higher = more efficient recombination; sequences stand for … in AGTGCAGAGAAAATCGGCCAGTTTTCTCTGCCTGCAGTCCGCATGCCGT…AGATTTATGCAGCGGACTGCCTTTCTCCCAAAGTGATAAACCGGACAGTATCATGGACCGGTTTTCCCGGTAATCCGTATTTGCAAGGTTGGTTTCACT; site = the 11-nt target
Listed here: items and their measured recombinant barcode read abundance (log10).
// no unit, no text: just the number

Sample answers from the record:
GTTTGCTCTTGGGTTCTAACCTGTTGCCT (site GTTTGGTCTAG) :: 0.416
TAGCCATCTTGGGTTCTAACCTGTTGCCT (site TAACCATCTAG) :: 0.0247
TCTCATGCTTGGGTTCTAACCTGTTGCAT (site GACGGCACTCC) :: 0.0135
AAGCATTCTTGGGTTCTAACCTGTTGCCT (site AAGCAGTCTAG) :: 0.254

Entry under test: GTTTGTCCTTGGGTTCTAACCTGTTGCTT (site GTTTGTCCTAA) . Its recombinant barcode read abundance (log10) was 0.048

Form field recombinant barcode read abundance (log10), entry CCATCCACTTGGGTTCTAACCTGTTGCCT (site TCATCCGCTAG) : 0.0523

For reference, reported recombinant barcode read abundance (log10) for AAGCATTCTTGGGTTCTAACCTGTTGCCT (site AAGCACTCTAG) stands at 0.111

The recorded recombinant barcode read abundance (log10) for CTCGACCCTTGGGTTCTAACCTGTTGCCT (site CTGGATCCTAG) is 0.0491

CTCCGTCCTTGGGTTCTAACCTGTTGCTT (site CTCCGGCCTAA) yielded recombinant barcode read abundance (log10) of 0.589

// recombinant barcode read abundance (log10) value for ACTTTACCTTGGGTTCTAACCTGTTGCCT (site GCTTTACCTAG) : 0.0495

* * *

- ASSAY REMARKS: recombinant UMI read abundance after kanamycin selection (control-corrected) (log10(CPM+1)); higher = more efficient recombination; extreme values may be limits of the assay; sequences stand for … in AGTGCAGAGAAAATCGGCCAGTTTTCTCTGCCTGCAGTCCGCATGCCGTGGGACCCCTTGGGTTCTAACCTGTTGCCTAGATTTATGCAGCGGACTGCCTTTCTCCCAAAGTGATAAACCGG…AGGTTGGTTTCACT; site = the 11-nt donor
QUANTITY MEASURED: recombinant UMI read abundance (log10)
Reply: number alone, nothing else.

ACAATATCATGGACCGGTTTTCCCGGTAATCCGTATTTGCA (site ACATTATCTTG) :: 1.81
AACCGTCCATGGACCGGTTTTCCCGGTAATCCGTATTTGCT (site AACCGTCCTAT) :: 0.0146

Kindly note the recorded recombinant UMI read abundance (log10) for TATGTGTCATGGACCGGTTTTCCCGGTAATCCGTATTTGAC (site AATGTGTCTGT) , which is 0

So for TCTACTGCATGGACCGGTTTTCCCGGTAATCCGTATTTGCC (site TCTACTGCTGG) , the logged recombinant UMI read abundance (log10) turned out to be 0

The sequence identified as GGAGGGGCATGGACCGGTTTTCCCGGTAATCCGTATTTGGT (site GGAGTGGCTAC) registered its recombinant UMI read abundance (log10) at 0.0205

The sequence identified as ACTCCTGCATGGACCGGTTTTCCCGGTAATCCGTATTTGAC (site ACTCCTGCTGT) registered its recombinant UMI read abundance (log10) at 0.671

Note to self: recombinant UMI read abundance (log10) recorded for CAGCGGTCATGGACCGGTTTTCCCGGTAATCCGTATTTGCC (site CAGCGGTCTGG) was 2.76

Looking up CGATCATCATGGACCGGTTTTCCCGGTAATCCGTATTTGCA (site CGATCATCTAG) , I see its recombinant UMI read abundance (log10) listed as 0

So, CCATCGGCATGGACCGGTTTTCCCGGTAATCCGTATTTGTG (site CCATCGGCTCA) ? Its recombinant UMI read abundance (log10) was 1.73

Data point: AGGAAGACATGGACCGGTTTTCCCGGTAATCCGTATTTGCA (site TGGATGACTTG) ; recombinant UMI read abundance (log10) = 0.00459

Field recombinant UMI read abundance (log10) (entry GTTCGACCATGGACCGGTTTTCCCGGTAATCCGTATTTGCA (site GTTCGATCTTG) ) reads 0

For TTGCGTTCATGGACCGGTTTTCCCGGTAATCCGTATTTGTC (site TTGCGTTCTGA) the sequence record lists recombinant UMI read abundance (log10) as 0

What the record says about CGCATGTCATGGACCGGTTTTCCCGGTAATCCGTATTTGTT (site CGCATGTCTAA) : recombinant UMI read abundance (log10) is 2.52

Item: GGTCGAACATGGACCGGTTTTCCCGGTAATCCGTATTTGTA (site GGTCTAACTTA) | recombinant UMI read abundance (log10): 0.00734

Short answer for ACTGCTACATGGACCGGTTTTCCCGGTAATCCGTATTTGGT (site ACTGCTACTAC) : recombinant UMI read abundance (log10) was 0.194

Per the records, this sequence ( TACGGCGCATGGACCGGTTTTCCCGGTAATCCGTATTTGCC (site TACGGCGCTGG) ) has recombinant UMI read abundance (log10) equal to 2.01

Sample TAGAACACATGGACCGGTTTTCCCGGTAATCCGTATTTGCA (site TAGAAAACTTG) ; recombinant UMI read abundance (log10) observed: 0

ATTCAAGCATGGACCGGTTTTCCCGGTAATCCGTATTTGAG (site ATTCAAGCTCT) yielded recombinant UMI read abundance (log10) of 1.16

The measured recombinant UMI read abundance (log10) associated with CGAGTCACATGGACCGGTTTTCCCGGTAATCCGTATTTGGG (site CCAGTCACTCC) reads 0.0249
